Readings of OD450 for the listed binders
Biological target: T1, Peptide 8: Biotin-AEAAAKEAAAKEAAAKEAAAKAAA-Tyr-acid (N-terminal biotin; C-terminal acid; no PC)
T1 construct: control peptide without PC
T1 peptide: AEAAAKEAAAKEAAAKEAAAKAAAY
Assay: scFv ELISA
Protocol: For ELISA analysis of scFv binding, 96-well polystyrene plates were coated with Peptide 1, 4, 5, 8 or 100 μL BSA (10 μg/mL) in PBS at 4° C. overnight. […] All plates were washed three times with PBS-Tween before 40 μL aliquots of PPE were added to assay plates along with 50 μL 10% BSA, and plates were incubated for 1 hour at room temperature. […] The amount of scFv bound to each well was quantitated from absorbance measurement at 450 nm (OD450).
Form entry: value (OD450) — number only.

| BINDER | OD450, OD450 |
| --- | --- |
| PcOxP_DB01_G07 (scFv, V domains shown, scFv in periplasmic extract) VH: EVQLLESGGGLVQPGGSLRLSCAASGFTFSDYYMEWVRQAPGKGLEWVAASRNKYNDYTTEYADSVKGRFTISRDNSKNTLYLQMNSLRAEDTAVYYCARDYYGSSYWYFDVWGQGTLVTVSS VL: DIVMTQSPDSLAVSLGERATINCTASESLYGSKHKVHYLAWYQQKPGQPPKLLIYGASNRYIGVPDRFSGSGSGTDFTLTISSLQAEDVAVYYCAQFYSYPLTFGGGTKVEIK | 0.04 |
| PcOxP_DB01_F07 (scFv, V domains shown, scFv in periplasmic extract) VH: EVQLLESGGGLVQPGGSLRLSCAASGDTFSDFYLEWVRQAPGKGLEWVAASRNKANGYTTEYADSVKGRFTISRDNSKNTLYLQMNSLRAEDTAVYYCARDYYHSSYWYFDVWGQGTLVTVSS VL: DIVMTQSPDSLAVSLGERATINCTASESLYSSKHKVHYLAWYQQKPGQPPKLLIYGASNRYIGVPDRFSGSGSGTDFTLTISSLQAEDVAVYYCAHFYSYPLTFGGGTKVEIK | 0.04 |
| PcOxP_DB04_D08 (scFv, V domains shown, scFv in periplasmic extract) VH: EVQLLESGGGLVQPGGSLRLSCAASGFTFSDHYMEWVRQAPGKGLEWVAASRNKANDYTTEYADSVKGRFTISRDNSKNTLYLQMNSLRAEDTAVYYCARDYYGSSYWYFDVWGQGTLVTVSS VL: DIQMTQSPSSLSASVGDRVTITCTASESLYSSKHKVHYLAWYQQKPGKAPKLLIYGASNRAIGVPSRFSGSGSGTDFTLTISSLQPEDFATYYCAQFYTYPLTFGGGTKVEIK | 0.07 |
| PcOxP_DB04_B06 (scFv, V domains shown, scFv in periplasmic extract) VH: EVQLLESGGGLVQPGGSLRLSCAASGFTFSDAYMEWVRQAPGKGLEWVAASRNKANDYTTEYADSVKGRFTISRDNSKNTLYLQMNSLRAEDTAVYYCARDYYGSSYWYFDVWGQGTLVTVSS VL: DIQMTQSPSSLSASVGDRVTITCTASESLYSSKHKVHYLAWYQQKPGKAPKLLIYGASNRYIGVPSRFSGSGSGTDFTLTISSLQPEDFATYYCAQFYDYPLTFGGGTKVEIK | 0.06 |
| PcOxP_DB04_F11 (scFv, V domains shown, scFv in periplasmic extract) VH: EVQLLESGGGLVQPGGSLRLSCAASGFTGSDFYMEWVRQAPGKGLEWVAASRGKGNSYTTEYADSVKGRFTISRDNSKNTLYLQMNSLRAEDTAVYYCARDYYGSSTWYFDVWGQGTLVTVSS VL: DIQMTQSPSSLSASVGDRVTITCTASESLYSSKHKVHYLAWYQQKPGKAPKLLIYGASNRYAGVPSRFSGSGSGTDFTLTISSLQPEDFATYYCGQFYSYPLTFGGGTKVEIK | 0.06 |

What the record says about PcOxP_DB04_C08 (scFv, V domains shown, scFv in periplasmic extract) VH: EVQLLESGGGLVQPGGSLRLSCAASGETFSDFYMEWVRQAPGKGLEWVAASRNKANDYTTEYADSVKGRFTISRDNSKNTLYLQMNSLRAEDTAVYYCARDYYGSSYWYFDVWGQGTLVTVSS VL: DIQMTQSPSSLSASVGDRVTITCTASESLYSSKHGVHYLAWYQQKPGKAPKLLIYGASNRYIGVPSRFSGSGSGTDFTLTISSLQPEDFATYYCAQFYQYPLTFGGGTKVEIK : OD450 is 0.06

What the record says about PcOxP_DB01_E09 (scFv, V domains shown, scFv in periplasmic extract) VH: EVQLLESGGGLVQPGGSLRLSCAASGNTFSDFYMEWVRQAPGKGLEWVAASRNKANDYTTEYADSVKGRFTISRDNSKNTLYLQMNSLRAEDTAVYYCARDYYGSSYWYFDVWGQGTLVTVSS VL: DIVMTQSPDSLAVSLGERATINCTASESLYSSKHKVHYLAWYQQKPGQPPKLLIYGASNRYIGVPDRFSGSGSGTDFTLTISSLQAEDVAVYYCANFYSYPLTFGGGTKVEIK : OD450 is 0.04

What the record says about PcOxP_DB04_H03 (scFv, V domains shown, scFv in periplasmic extract) VH: EVQLLESGGGLVQPGGSLRLSCAASGFPFSDFYMEWVRQAPGKGLEWVAASRNKANDYTTEYADSVKGRFTISRDNSKNTLYLQMNSLRAEDTAVYYCARDYYGSSYWYFDVWGQGTLVTVSS VL: DIQMTQSPSSLSASVGDRVTITCRASESLYSSLHKYLAWYQQKPGKAPKLLIYGASNLQIGVPSRFSGSGSGTDFTLTISSLQPEDFATYYCAQFYSYPLTFGGGTKVEIK : OD450 is 0.08

What the record says about PcOxP_DB01_B12 (scFv, V domains shown, scFv in periplasmic extract) VH: EVQLLESGGGLVQPGGSLRLSCAASGFTFSSYYMEWVRQAPGKGLEWVAASRNKGNSYTTEYADSVKGRFTISRDNSKNTLYLQMNSLRAEDTAVYYCARDYYGSSYWYFDVWGQGTLVTVSS VL: DIVMTQSPDSLAVSLGERATINCTASESLYSSKHKVHYLAWYQQKPGQPPKLLIYGASNRYIGVPDRFSGSGSGTDFTLTISSLQAEDVAVYYCGQFYSYPLTFGGGTKVEIK : OD450 is 0.05

What the record says about PcOxP_DB04_H08 (scFv, V domains shown, scFv in periplasmic extract) VH: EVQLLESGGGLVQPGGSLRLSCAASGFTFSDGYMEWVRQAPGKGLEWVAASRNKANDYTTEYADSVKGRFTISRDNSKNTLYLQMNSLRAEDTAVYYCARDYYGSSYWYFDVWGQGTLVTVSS VL: DIQMTQSPSSLSASVGDRVTITCTASESLYSSKHKVHYLAWYQQKPGKAPKLLIYGASNLYSGVPSRFSGSGSGTDFTLTISSLQPEDFATYYCAQFYSYPLTFGGGTKVEIK : OD450 is 0.06
